Experiment: kanamycin survival loss of SKKanGAS strain – BacTiter-Glo luminescence, streptokinase expression inhibitor project, primary screen (AID 1662);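 note: strain carries kanamycin resistance gene driven by streptokinase promoter and grows in 40 µg/ml kanamycin; loss of luminescence reflects streptokinase promoter inhibition or plain growth inhibition; 0% = median of DMSO wells and 100% = positive control at its reference dose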
Conditions: S. pyogenes SKKanGAS, kanamycin growth, 6 h, at 7.5 µM
Out of some 300,000 compounds screened, about 4,000 (1.3%) were called active.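 Rule for the calls: active = mean replicate score, as percent of positive control median, at least 50; inconclusive = mean below 50 but one replicate at or above 50; inactive = mean and every replicate below 50.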 The entries come from a sample that favours actives as a whole.
Output constraint: value belongs to active, inactive

Record excerpt, results attached:
| MOLECULE | QUALITATIVE_LABEL |
| --- | --- |
| CCCCn1c(=O)c(C(=O)Nc2ccccc2Cl)c(O)c2ccccc21 | inactive |
| CC1(C)C(c2ccccc2)=NC(c2cccnc2)=[N+]1[O-] | inactive |
| CCCCCCCCCCCCn1ccc(=N)cc1 | active |

Per the records of this test, what outcome belongs to CCCCCn1c(=O)c(C(=O)NCc2ccccn2)c(O)c2ccccc21 ?
inactive

Given CCCCCn1c(=O)c(C(=O)NCc2ccccc2)c(O)c2ccccc21 , state the outcome it received in this test.
active

Record request — test call for O=[N+]([O-])c1ccc(C2C3C(c4ccccc4)=NC4(CCCCC4)N32)cc1 (configuration not stated)
inactive

GET /call?item= O=c1[nH]c(=O)n(Cc2ccccc2)c(O)c1/C=N/Nc1c(F)c(F)c(F)c(F)c1F returns the recorded outcome of this test.
inactive

Just curious, what result did O=C(Cc1ccccc1)N1CCN(C2CCCCCC2)CC1 get here?
inactive

Test call for this molecule, please: CCOP(=S)(OCC)SCOC(=O)NCC(=O)OC
inactive

---

Test: kanamycin survival loss of SKKanGAS strain – BacTiter-Glo luminescence, streptokinase expression inhibitor project, primary screen (AID 1662);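 note: strain carries kanamycin resistance gene driven by streptokinase promoter and grows in 40 µg/ml kanamycin; loss of luminescence reflects streptokinase promoter inhibition or plain growth inhibition; 0% = median of DMSO wells and 100% = positive control at its reference dose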
Conditions: S. pyogenes SKKanGAS, kanamycin growth, 6 h, at 7.5 µM, stronger effect = higher value
The campaign covered roughly 300,000 compounds. About 4,000 (1.3%) were called active. Many of the other results were omitted from the sample, so actives are more common in it than they were.
PROPERTY_NAME: inhibition (%)
Numbers only; they are read as %.

Worked examples, 2 compounds total:
| COMPOUND | PROPERTY_NAME | QUANTITATIVE_READOUT |
| --- | --- | --- |
| Cc1cccc(NC(=O)OC2CN3CCC2CC3)c1 (stereo not drawn) | inhibition | 0.418 |
| COC(=O)C1=C(c2cc3ccccc3o2)C[C@@H]2CC[C@H]1N2C(=O)NC1CCCCC1 | inhibition | 7.09 |

Turning to the following compound.
Recall and state the measured inhibition for COC(=O)N(c1ccc(OC)cc1)P1(=S)OCCC(C)O1 (stereo not drawn) .
-2.38
